Assay: Cmax in mouse at 25 mg/kg, po
Type: ADME, organism-based
Design: dose 25 mg/kg, route oral
Settings: in vivo
measured-attribute: Cmax (µM)

>  <chem-smiles>
C[C@H]1Cc2c([nH]c3cc(F)c(F)cc23)[C@@]2(N1)C(=O)Nc1ccc(Cl)cc12

>  <unit-label>
µM

>  <number>
8.32

$$$$

* * *

Assay: Half life in mouse at 25 mg/kg, po
Type: ADME, organism-based
Parameters: dose 25 mg/kg, route oral
Settings: in vivo

>  <chem-smiles>
C[C@H]1Cc2c([nH]c3cc(F)c(F)cc23)[C@@]2(N1)C(=O)Nc1ccc(Cl)cc12

>  <half-life>
3.18 h

$$$$

* * *

Experiment: Lipophilicity, log P of the compound
Assay type: physicochemical
Settings: octanol/water

>  <chem-smiles>
C[C@H]1CCc2c([nH]c3ccccc23)[C@@]2(N1)C(=O)Nc1ccc(Br)cc12

>  <logP>
3.9

$$$$
>  <chem-smiles>
C[C@H]1Cc2c([nH]c3cc(Cl)ccc23)[C@@]2(N1)C(=O)Nc1ccc(Cl)cc12

>  <logP>
4.8

$$$$
>  <chem-smiles>
C[C@H]1Cc2c([nH]c3cc(F)c(F)cc23)[C@@]2(N1)C(=O)Nc1ccc(Cl)cc12

>  <logP>
4

$$$$
>  <chem-smiles>
C[C@H]1Cc2c([nH]c3ccc(F)cc23)[C@@]2(N1)C(=O)Nc1ccc(Cl)cc12

>  <logP>
3.6

$$$$

* * *

Tested on: Plasmodium falciparum
Experiment: Antimalarial activity against drug-sensitive Plasmodium falciparum NF54 infected in human erythrocytes after 48 hrs by [3H]hypoxanthine assay
Assay type: functional, organism-based
measured-attribute: log10 IC50 (log10 of the value in nM)

>  <compound>
CC1CCc2c([nH]c3ccccc23)C2(N1)C(=O)Nc1ccc(Cl)cc12 (stereo not given)

>  <number>
1.92

$$$$
>  <compound>
C[C@H]1Cc2c([nH]c3ccc(F)cc23)[C@@]2(N1)C(=O)Nc1ccc(Cl)cc12

>  <number>
0.48

$$$$
>  <compound>
O=C1Nc2ccc(Cl)cc2C12NCCCc1c2[nH]c2ccccc12 (stereo not given)

>  <number>
1.93

$$$$
>  <compound>
CC1(C)Cc2c([nH]c3ccccc23)C2(N1)C(=O)Nc1ccc(Cl)cc12 (stereo not given)

>  <number>
2.93

$$$$
>  <compound>
CC1CCc2c([nH]c3ccccc23)C2(N1)C(=O)Nc1ccc(Br)cc12 (stereo not given) [SPIROAZEPINEINDOLE]

>  <number>
1.95

$$$$

* * *

Experiment: AUC (infinity) in mouse at 25 mg/kg, po
Format: ADME, organism-based
Design: time infinity, dose 25 mg/kg, route oral
Conditions: plasma

>  <chem-smiles>
C[C@H]1Cc2c([nH]c3cc(F)c(F)cc23)[C@@]2(N1)C(=O)Nc1ccc(Cl)cc12

>  <unit-label>
µM·h

>  <AUC(0-inf)>
71.4

$$$$

* * *

Tested on: Plasmodium falciparum
Assay: Antimalarial activity against drug-sensitive Plasmodium falciparum NF54 infected in human erythrocytes after 48 hrs by [3H]hypoxanthine assay
Type: functional, organism-based
Response field label: string, one of yes (1) (IC50 strictly below 0.08 µM) or no (0).

>  <compound>
C[C@H]1Cc2c([nH]c3cc(Cl)ccc23)[C@@]2(N1)C(=O)Nc1ccc(Cl)cc12

>  <label-value>
yes (1)

$$$$
>  <compound>
C[C@@H]1Cc2c([nH]c3ccc(F)cc23)[C@]2(N1)C(=O)Nc1ccc(Cl)cc12

>  <label-value>
no (0)

$$$$
>  <compound>
O=C1Nc2ccc(Cl)cc2C12NCCc1c2[nH]c2ccccc12 (centres undefined)

>  <label-value>
no (0)

$$$$
>  <compound>
C[C@@H]1CCc2c([nH]c3ccccc23)[C@]2(N1)C(=O)Nc1ccc(Br)cc12

>  <label-value>
no (0)

$$$$
>  <compound>
C[C@@H]1Cc2c([nH]c3cc(Cl)ccc23)[C@]2(N1)C(=O)Nc1ccc(Cl)cc12

>  <label-value>
no (0)

$$$$
>  <compound>
C[C@H]1Cc2c([nH]c3cc(F)c(F)cc23)[C@@]2(N1)C(=O)Nc1ccc(Cl)cc12

>  <label-value>
yes (1)

$$$$
>  <compound>
C[C@@H]1Cc2c([nH]c3cc(F)c(F)cc23)[C@]2(N1)C(=O)Nc1ccc(Cl)cc12

>  <label-value>
no (0)

$$$$
>  <compound>
C[C@@H]1Cc2c([nH]c3cc(Cl)c(F)cc23)[C@]2(N1)C(=O)Nc1ccc(Cl)cc12

>  <label-value>
yes (1)

$$$$
>  <compound>
O=C1Nc2ccc(Cl)cc2C12NCCCCc1c2[nH]c2ccccc12 (centres undefined)

>  <label-value>
no (0)

$$$$

* * *

Assay: Volume of distribution at steady state in mouse at 5 mg/kg, iv
Details: in vivo, read-out: Vdss
measured-attribute: Vd (L/kg)

>  <chem-smiles>
C[C@H]1Cc2c([nH]c3cc(F)c(F)cc23)[C@@]2(N1)C(=O)Nc1ccc(Cl)cc12

>  <number>
1.6

$$$$

* * *

What follows is a record of IC50 for Voltage-gated inwardly rectifying potassium channel KCNH2 (Homo sapiens, UniProt Q12809).
measured-attribute: IC50

>  <chem-smiles>
C[C@H]1Cc2c([nH]c3cc(F)c(F)cc23)[C@@]2(N1)C(=O)Nc1ccc(Cl)cc12

>  <result>
> 30 µM

$$$$
>  <chem-smiles>
C[C@H]1Cc2c([nH]c3cc(Cl)ccc23)[C@@]2(N1)C(=O)Nc1ccc(Cl)cc12

>  <result>
> 30 µM

$$$$

* * *

What follows is a record of IC50 for Cytochrome P450 2C9 (Homo sapiens).
measured-attribute: IC50

>  <chem-smiles>
C[C@H]1Cc2c([nH]c3cc(Cl)c(F)cc23)[C@@]2(N1)C(=O)Nc1ccc(Cl)cc12

>  <measured-attribute>
IC50

>  <result>
5.42 µM

$$$$
>  <chem-smiles>
C[C@@H]1Cc2c([nH]c3cc(Cl)ccc23)[C@]2(N1)C(=O)Nc1ccc(Cl)cc12

>  <measured-attribute>
IC50

>  <result>
> 10 µM

$$$$
>  <chem-smiles>
C[C@@H]1Cc2c([nH]c3cc(Cl)c(F)cc23)[C@]2(N1)C(=O)Nc1ccc(Cl)cc12

>  <measured-attribute>
IC50

>  <result>
> 10 µM

$$$$
>  <chem-smiles>
C[C@H]1Cc2c([nH]c3cc(F)c(F)cc23)[C@@]2(N1)C(=O)Nc1ccc(Cl)cc12

>  <measured-attribute>
IC50

>  <result>
7.35 µM

$$$$

* * *

Molecular target: UniProt P08684
Sequence (P08684 whole entry): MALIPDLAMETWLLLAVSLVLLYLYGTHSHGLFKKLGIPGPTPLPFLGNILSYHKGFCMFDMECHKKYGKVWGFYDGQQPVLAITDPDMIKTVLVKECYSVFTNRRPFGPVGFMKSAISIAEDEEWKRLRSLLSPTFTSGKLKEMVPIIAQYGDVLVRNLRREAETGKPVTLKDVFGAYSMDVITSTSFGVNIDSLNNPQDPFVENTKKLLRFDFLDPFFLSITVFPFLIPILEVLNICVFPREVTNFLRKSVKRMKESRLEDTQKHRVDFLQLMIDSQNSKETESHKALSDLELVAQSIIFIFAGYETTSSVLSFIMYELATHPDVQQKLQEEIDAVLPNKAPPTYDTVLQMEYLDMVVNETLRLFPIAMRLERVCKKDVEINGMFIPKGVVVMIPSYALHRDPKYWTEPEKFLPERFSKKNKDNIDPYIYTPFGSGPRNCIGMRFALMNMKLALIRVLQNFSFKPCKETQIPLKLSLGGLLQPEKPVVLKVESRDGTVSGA
Test: Inhibition of CYP3A4 in human liver microsome by LC-MS/MS analysis
Format: ADME, microsomes

>  <chem-smiles>
C[C@@H]1Cc2c([nH]c3cc(Cl)ccc23)[C@]2(N1)C(=O)Nc1ccc(Cl)cc12

>  <IC50>
Not Active

$$$$
>  <chem-smiles>
C[C@@H]1Cc2c([nH]c3ccc(F)cc23)[C@]2(N1)C(=O)Nc1ccc(Cl)cc12

>  <IC50>
Not Active

$$$$
>  <chem-smiles>
C[C@H]1Cc2c([nH]c3cc(Cl)c(F)cc23)[C@@]2(N1)C(=O)Nc1ccc(Cl)cc12

>  <IC50>
Not Active

$$$$
>  <chem-smiles>
C[C@@H]1Cc2c([nH]c3cc(F)c(F)cc23)[C@]2(N1)C(=O)Nc1ccc(Cl)cc12

>  <IC50>
Not Active

$$$$
>  <chem-smiles>
C[C@H]1Cc2c([nH]c3cc(F)c(F)cc23)[C@@]2(N1)C(=O)Nc1ccc(Cl)cc12

>  <IC50>
Not Active

$$$$
>  <chem-smiles>
C[C@@H]1Cc2c([nH]c3cc(Cl)c(F)cc23)[C@]2(N1)C(=O)Nc1ccc(Cl)cc12

>  <IC50>
Not Active

$$$$
>  <chem-smiles>
C[C@H]1Cc2c([nH]c3ccc(F)cc23)[C@@]2(N1)C(=O)Nc1ccc(Cl)cc12

>  <IC50>
Not Active

$$$$
>  <chem-smiles>
C[C@H]1Cc2c([nH]c3cc(Cl)ccc23)[C@@]2(N1)C(=O)Nc1ccc(Cl)cc12

>  <IC50>
Not Active

$$$$

* * *

Experiment: Clearance in mouse at 5 mg/kg, iv
Format: ADME, organism-based
Set-up: dose 5 mg/kg, route intravenous
Details: in vivo

>  <chem-smiles>
C[C@@H]1Cc2c([nH]c3cc(F)c(F)cc23)[C@]2(N1)C(=O)Nc1ccc(Cl)cc12

>  <unit-label>
mL/min/kg

>  <clearance>
4.14

$$$$
>  <chem-smiles>
C[C@H]1Cc2c([nH]c3cc(Cl)ccc23)[C@@]2(N1)C(=O)Nc1ccc(Cl)cc12

>  <unit-label>
mL/min/kg

>  <clearance>
60.1

$$$$
>  <chem-smiles>
C[C@H]1Cc2c([nH]c3cc(F)c(F)cc23)[C@@]2(N1)C(=O)Nc1ccc(Cl)cc12

>  <unit-label>
mL/min/kg

>  <clearance>
8.53

$$$$
>  <chem-smiles>
C[C@H]1Cc2c([nH]c3ccc(F)cc23)[C@@]2(N1)C(=O)Nc1ccc(Cl)cc12

>  <unit-label>
mL/min/kg

>  <clearance>
24

$$$$
>  <chem-smiles>
C[C@@H]1Cc2c([nH]c3cc(Cl)c(F)cc23)[C@]2(N1)C(=O)Nc1ccc(Cl)cc12

>  <unit-label>
mL/min/kg

>  <clearance>
2.58

$$$$
